test system: SF-295 CNS; experiment: NCI tumour cell line growth inhibition, 48 h
parameter_measured: TGI

- O=C(CN1C(=O)c2ccccc2C1=O)NC1(C(=O)O)CCCC1: > 100 µM
- C=CCn1c(=O)c(-c2ccccc2)c(O)c2ccccc21: > 100 µM
- CC(C)(C)OC(=O)N1CC(COS(C)(=O)=O)c2ccc(O)cc21 (stereo unspecified): 10.8 µM
- c1ccc(C2(c3cc4ccccc4[nH]3)OCCO2)cc1: > 100 µM
- O=c1[nH]/c(=C/c2ccc(OCc3ccccc3)cn2)c(=O)[nH]/c1=C/c1cccnc1: 1.65 µM
- O=C(Cl)c1cc([N+](=O)[O-])cc([N+](=O)[O-])c1: > 100 µM

---

# Lookup of reported TGI keyed by entry
tested on: HCT-116 colon; test: NCI tumour cell line growth inhibition, 48 h
parameter_measured: TGI

* Nc1nc(NC(=O)C2=NS(=O)(=O)c3cc(S(N)(=O)=O)c(Cl)cc3N2)n[nH]1 | > 100 µM
* COc1ccc(N2CCN(CC(=O)N3CCN(c4nnc(-c5ccc(Cl)cc5)c(-c5ccc(Cl)cc5)n4)CC3)CC2)cc1 | > 100 µM
* CCN(CC)CCCC(C)NC(=S)N/N=C(\C)c1ccccn1 (stereo not given) | > 100 µM
* Cc1ccc(SCN2CCCCC2)cc1 (tested in a mixture with another compound) | 23.4 µM
* CC1=CC(=O)C[C@]2(C)[C@@H](O)CC(C(C)CO)C[C@@H]12 (stereo not given in full) | > 100 µM

---

test system: SF-295 CNS; assay: NCI tumour cell line growth inhibition, 48 h; in the data active = GI50 below about 0.43 µM; inactive = the rest
Possible outcomes: T for active, F for inactive

* CCS(=O)(=O)Nc1ccc(Oc2ccc(F)cc2F)c(-c2cn(C)c(=O)c3[nH]ccc23)c1 | T
* CCOC(=O)C(Cc1ccc(N(CCCl)CCCl)cc1)NC(=O)C(CC(C)C)NC(C)=O (centres undefined) | F
* CN(C)c1ccc(/C=C/C(=O)c2ccc(Nc3nc(Nc4ccc(F)cc4)nc(Nc4ccc(Cl)cc4)n3)cc2)cc1 | F
* COc1ccc(C(=O)CC(Cl)=C(Cl)Cl)cc1 | F
* COc1ccc(/C=C2\CC(C)CC3C2=NN(C(C)=O)C3c2ccc(OC)c(OC)c2)cc1OC (centres undefined) | F
* Oc1ccc(-c2nc(-c3ccc4oc5ccc(-c6[nH]c(-c7ccc(O)cc7)nc6-c6ccccc6)cc5c4c3)c(-c3ccccc3)[nH]2)cc1 | F
* CC1SC(c2cccc(Oc3ccccc3)c2)N(CCc2cccs2)C1=O (centres undefined) | F
* CN(C)CCCn1c2c(c3ccncc3c1=O)C(=O)c1ccccc1-2 | F
* O=C1/C(=C/c2ccc([N+](=O)[O-])s2)Oc2ccc(Cl)cc21 | F

---

test system: IGROV1 ovarian; experiment: NCI tumour cell line growth inhibition, 48 h
# Lookup of reported TGI keyed by entry
parameter_measured: TGI

- NC(=O)NOCC1NC(=O)NC1=O (stereo not drawn): > 100 µM
- COc1ccc(C2CC(c3cccc(Nc4ccnc5cc(Cl)ccc45)c3)=NN2c2ccc(Cl)cc2)cc1 (stereo not drawn): > 100 µM
- CCN(CC)CC(C(=O)Nc1c(C)cccc1C)/C(C)=N/NC(N)=S (stereo not drawn): > 100 µM

---

test system: TK-10 renal; experiment: NCI tumour cell line growth inhibition, 48 h
parameter_measured: TGI

* COc1ccc(N=Nc2ccc3oc(=O)c(C(=O)Nc4ccc(OC)cc4)cc3c2)cc1 | > 100 µM
* Cc1ccc(S(=O)(=O)NC2(C=O)CCC(C(C)(C)C)CC2)cc1 (configuration not stated) | > 100 µM
* CCOc1ccccc1Nc1nc(C)c(C(=O)CC(=O)C(=O)Nc2ccccc2)s1 | > 100 µM
* COC[C@@H](N=Cc1ccc(OC)cc1)C(C)C | > 100 µM
* COc1cc(C2C3=C(COC3=O)N(CCO)c3cc4c(cc32)CCC4)cc(OC)c1OC (configuration not stated) | > 32.5 µM
* COc1cc2c(oc(=O)c3c4oc([Si](C)(C)C)cc4cc(OC)c23)c2cccc(O)c12 | > 100 µM
* Nc1cc(N)c2nc(-c3ccccc3)c(Sc3ccc(F)cc3)nc2c1 | 42.6 µM
* N#Cc1ccccc1C#C/C=C\C#Cc1cnccn1 | 63.6 µM
* O=C(Cc1nc2ccccc2s1)C(=O)Nc1ccccc1C(F)(F)F | > 100 µM
* CC(C)(O)C1CC(=O)C(C)(C2C(O)CC3(C)C4CC=C5C(CCC(O)C5(C)C)C4(C)C(=O)CC23C)O1 (configuration not stated) | > 100 µM
* CCN(CC)CC(C(=O)Nc1c(C)cccc1C)/C(C)=N/NC(N)=S (configuration not stated) | > 100 µM
* O=C1c2c(ccc3c2CCCC3)CC12Cc1ccccc1C2 | > 100 µM
* CN1CCN(c2nc3c(c(=O)n(C)c(=O)n3C)n2C)CC1 | > 100 µM
* Cn1c(N)c(N=Nc2ccc(S(N)(=O)=O)cc2)c(=O)n(C)c1=O | > 100 µM
* Nc1n[nH]c(=O)c2c1c(Br)cn2C1OC(CO)C(O)C1O (configuration not stated) | > 100 µM
* O=C1N[C@@H](c2c[nH]c3ccc(Br)cc23)C(=O)N[C@H]1c1c[nH]c2ccc(Br)cc12 | 21.7 µM
* CC(C)(C)OC(=O)NCCNC(=O)OCc1ccccc1 | > 100 µM
* O=C(C(Cl)=C(Nc1ccccc1)Nc1ccccc1)C(Cl)Cl | > 100 µM
* NC(N)=NS(=O)(=O)c1ccc(NC(=O)c2c3ccccc3nc3ccccc23)cc1 | > 100 µM
* CCC1(CC)C(=O)N(C(=O)c2ccc(Cl)cc2)N(C(=O)c2ccccc2Cl)C1=O | > 100 µM
* COc1cc(/C=C/C(=O)C(C)(C)C)cc(OC)c1OC | > 100 µM
* CCCC1C2=C(C(=O)OC2=O)C2C(CC)CC3=C(C(=O)OC3=O)C12 (configuration not stated) | > 100 µM

Where do the numbers come from? From PubChem BioAssay (NCI).
